Tested On: RSV F protein (immobilized on the BIAcore sensor chip) (respiratory syncytial virus)
Assay Remarks: BIAcore, immobilized F protein;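 note: fab fragments as analytes binding F protein coupled to the chip via EDC/NHS chemistry, with blank surface signal subtracted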
// values below are reported kon
Entry rule: numbers only, all in M⁻¹ s⁻¹.

Example entries begin here.
Binder	Endpoint Name	Unit Label	Reported
P12f2 (Fab fragment) (Fab, V domains shown, Fab) VH: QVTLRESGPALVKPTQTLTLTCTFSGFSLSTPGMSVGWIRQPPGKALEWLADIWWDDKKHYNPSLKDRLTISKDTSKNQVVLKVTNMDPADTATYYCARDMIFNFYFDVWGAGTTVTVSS VL: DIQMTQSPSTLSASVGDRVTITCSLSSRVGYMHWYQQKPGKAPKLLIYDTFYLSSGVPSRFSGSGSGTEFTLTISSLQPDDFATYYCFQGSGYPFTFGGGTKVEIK	kon	M⁻¹ s⁻¹	663000
P12f4 (Fab fragment) (Fab, V domains shown, Fab) VH: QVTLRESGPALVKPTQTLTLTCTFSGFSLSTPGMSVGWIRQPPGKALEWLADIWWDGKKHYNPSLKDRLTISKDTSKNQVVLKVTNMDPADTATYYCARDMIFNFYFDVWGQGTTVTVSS VL: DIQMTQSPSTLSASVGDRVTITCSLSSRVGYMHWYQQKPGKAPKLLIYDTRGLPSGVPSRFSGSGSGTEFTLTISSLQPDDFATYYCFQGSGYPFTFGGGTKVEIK	kon	M⁻¹ s⁻¹	527000

Data point: M3H9 (Fab fragment) (Fab, V domains shown) VH: QVTLRESGPALVKPTQTLTLTCTFSGFSLSTAGMSVGWIRQPPGKALEWLADIWWDDKKDYNPSLKSRLTISKDTSKNQVVLKVTNMDPADTATYYCARDMIFNWYFDVWGAGTTVTVSS VL: DIQMTQSPSTLSASVGDRVTITCSASSSVGYMHWYQQKPGKAPKLLIYDTYKQTSGVPSRFSGSGSGTEFTLTISSLQPDDFATYYCFQGSGYPFTFGGGTKLEIK ; kon = 605000

Briefly, kon measured for A12a6 (Fab fragment) (Fab, V domains shown, Fab) VH: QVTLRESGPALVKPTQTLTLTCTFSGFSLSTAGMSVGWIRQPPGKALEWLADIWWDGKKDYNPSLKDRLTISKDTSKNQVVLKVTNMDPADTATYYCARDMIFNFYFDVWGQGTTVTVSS VL: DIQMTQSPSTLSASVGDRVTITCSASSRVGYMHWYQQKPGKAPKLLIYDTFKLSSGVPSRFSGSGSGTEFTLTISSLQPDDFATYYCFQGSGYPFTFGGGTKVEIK : 743000

For record A1e9 (Fab fragment) (Fab, V domains shown, Fab; also called *Ale9) VH: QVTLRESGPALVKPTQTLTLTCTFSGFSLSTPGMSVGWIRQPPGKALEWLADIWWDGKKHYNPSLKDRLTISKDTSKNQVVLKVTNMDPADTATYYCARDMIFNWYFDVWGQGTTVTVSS VL: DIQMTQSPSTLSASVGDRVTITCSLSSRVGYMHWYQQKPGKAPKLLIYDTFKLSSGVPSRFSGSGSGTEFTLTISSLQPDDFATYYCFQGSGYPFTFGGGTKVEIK the listed kon is 790000
